Experiment: Cytotoxicity against african green monkey Vero cells
Type: cell-based
Conditions: chlorocebus sabaeus
MCC reference
// note: answer is a bare numeric in µM

// known answers, use as guide
In [3]: df
Out[3]:
                  compound_structure_string  readout_number
0  CCOC(=O)c1c(C)nc(OCCCNc2ccnc3cc(Cl)ccc23)nc1-c1ccccc1             100
1  CCOC(=O)c1c(C)nc(NCCCCNc2ccnc3cc(Cl)ccc23)nc1-c1ccc(F)cc1              20

Read the next record carefully.
Exercise: Which MCC value is on record for Cc1nc(NCCCCNc2ccnc3cc(Cl)ccc23)nc(-c2ccccc2)c1C(=O)OC(C)C ?
Solution: 20

Just for reference, ChEMBL document CHEMBL2417501 is where these values come from.
